This listing pairs compounds with measured inhibition.
Organism: Homo sapiens
experiment.description: Inhibition of human PP1 at 100 uM
measurement.label: inhibition (%)

>>> print(df.to_string())
                                   compound  test_value
0  Cc1cc(C)c(NC(=O)C2C(C(=O)O)[C@@H]3CC[C@H]2O3)c(C)c1 (stereo partly drawn)          63
1  O=C(O)C1C(C(=O)NCCc2cnc[nH]2)[C@H]2CC[C@@H]1O2 (stereo partly drawn)          35
2  O=C(O)C1C(C(=O)Nc2ccccc2O)[C@H]2CC[C@@H]1O2 (stereo partly drawn)          33
3  CC(C)(C)c1ccccc1NC(=O)C1C(C(=O)O)[C@@H]2CC[C@H]1O2 (stereo partly drawn)           9
4  CSc1ccccc1NC(=O)C1C(C(=O)O)[C@@H]2CC[C@H]1O2 (stereo partly drawn)          76
5  O=C(O)C1C(C(=O)Nc2ccccc2CO)[C@H]2CC[C@@H]1O2 (stereo partly drawn)          84
6  Cc1cccc(NC(=O)C2C(C(=O)O)[C@@H]3CC[C@H]2O3)c1C (stereo partly drawn)          84
7  Cc1cccc(C)c1NC(=O)C1C(C(=O)O)[C@@H]2CC[C@H]1O2 (stereo partly drawn)          68

====

Tested on: Plasmodium falciparum
experiment.description: Antiplasmodial activity against chloroquine-sensitive Plasmodium falciparum D6 assessed as inhibition of parasite LDH activity after 72 hrs by malstat reagent method
Type: functional, organism-based
cond: D6, 72 h
measurement.label: IC50 (µM)

                                   compound  bound_type  test_value
0  CC(CO)N1C(=O)C2C(C1=O)[C@H]1CC[C@@H]2O1 (stereo partly specified)           >         500
1  O=C(O)C1C(C(=O)Nc2ccccc2CO)[C@H]2CC[C@@H]1O2 (stereo partly specified)           =         275
2  O=C1OC(=O)C2C3CCC(O3)C12 (stereo unspecified) [DEMETHYL-CANTHARIDIN]           =          60
3  CSc1ccc(NC(=O)C2C(C(=O)O)[C@@H]3CC[C@H]2O3)cc1 (stereo partly specified)           >         500
4  CCC(C)N1C(=O)C2C(C1=O)[C@H]1CC[C@@H]2O1 (stereo partly specified)           =         225
5  CC(C)(C)c1ccc(C(C)(C)C)c(NC(=O)C2C(C(=O)O)[C@@H]3CC[C@H]2O3)c1 (stereo partly specified)           =          40

====

Tested on: Plasmodium falciparum
experiment.description: Antiplasmodial activity against chloroquine-resistant Plasmodium falciparum W2 assessed as inhibition of parasite LDH activity […] after 72 hrs by malstat reagent method
Assay type: functional, organism-based
cond: W2, 72 h
measurement.label: IC50 (µM)

                                    compound  bound_type  test_value
 0  CSc1ccccc1NC(=O)C1C(C(=O)O)[C@@H]2CC[C@H]1O2 (some centres not stated)           >         500
 1  O=C(O)C1C(C(=O)NCCN2CCOCC2)[C@H]2CC[C@@H]1O2 (some centres not stated)           >         500
 2  CC(C)C[C@@H](C(=O)O)N1C(=O)C2C(C1=O)[C@H]1CC[C@@H]2O1 (some centres not stated)           >         500
 3  Cc1cccc(NC(=O)C2C(C(=O)O)[C@@H]3CC[C@H]2O3)c1C (some centres not stated)           =         220
 4  O=C(O)C1C(C(=O)Nc2cccc(CO)c2)[C@H]2CC[C@@H]1O2 (some centres not stated)           =         390
 5  CSc1ccc(NC(=O)C2C(C(=O)O)[C@@H]3CC[C@H]2O3)cc1 (some centres not stated)           >         500
 6  O=C(O)C1C(C(=O)NCc2ccc(F)c(F)c2)[C@H]2CC[C@@H]1O2 (some centres not stated)           >         500
 7  NCCCN1C(=O)C2C(C1=O)[C@H]1CC[C@@H]2O1 (some centres not stated)           >         500
 8  CCCCCCN1C(=O)C2C(C1=O)[C@H]1CC[C@@H]2O1 (some centres not stated)           =          90
 9  O=C1C2C(C(=O)N1C1CCCCC1)[C@H]1CC[C@@H]2O1 (some centres not stated)           =          55
10  O=C1C2C(C(=O)N1CCCCCCO)[C@H]1CC[C@@H]2O1 (some centres not stated)           >         500
11  O=C1C2C(C(=O)N1N1CCOCC1)[C@H]1CC[C@@H]2O1 (some centres not stated)           >         500
12  CCCN1C(=O)C2C(C1=O)[C@H]1CC[C@@H]2O1 (some centres not stated)           >         500
13  O=C(O)C1C(C(=O)Nc2cccc(Cl)c2)[C@H]2CC[C@@H]1O2 (some centres not stated)           =         185
14  O=C(O)C1C(C(=O)Nc2cccc3ccccc23)[C@H]2CC[C@@H]1O2 (some centres not stated)           =         193
15  O=C(O)C1C(C(=O)NCCc2ccccc2)[C@H]2CC[C@@H]1O2 (some centres not stated)           =         300
16  O=C(O)C1C(C(=O)Nc2ccccc2CO)[C@H]2CC[C@@H]1O2 (some centres not stated)           =         333
